molecular target: Oxytocin receptor (Homo sapiens); test: Antagonist activity at oxytocin receptor (unknown origin) assessed as inhibition of agonist-induced oxytocic response; conditions: read-out: pA2 (converted)
Sequence (P30559 whole entry): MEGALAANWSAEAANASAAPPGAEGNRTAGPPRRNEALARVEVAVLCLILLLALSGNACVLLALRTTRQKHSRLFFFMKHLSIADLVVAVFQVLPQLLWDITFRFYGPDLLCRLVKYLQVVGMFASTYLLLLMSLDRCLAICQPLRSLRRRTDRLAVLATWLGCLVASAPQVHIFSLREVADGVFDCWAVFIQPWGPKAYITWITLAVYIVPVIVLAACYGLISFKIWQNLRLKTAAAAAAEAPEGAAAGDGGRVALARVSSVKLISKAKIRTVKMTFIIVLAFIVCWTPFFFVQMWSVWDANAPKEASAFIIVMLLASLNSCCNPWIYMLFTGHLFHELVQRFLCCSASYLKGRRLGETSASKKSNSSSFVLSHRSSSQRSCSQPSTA
*1 amine or outer side, *2 acyl side, *3 side chain or, on linkers, in order; H or OH if unused. Where a SMILES comes first, the peptide text is derived from it. Bridges are numbered along the chain shown (N, C = ends). [ ]: non-standard residue; d: D form. X1 = CCC(CC)(CC(=O)[*:1])S[*:2]; X2 = CC(C)(CC(=O)[*:1])S[*:2]; Pen = CC(C)(S)[C@H](N)C(=O)O
Would you mind telling me the reported Kb of each entry?
Answers are plain numbers, in nM.

Would you please look over these solved cases?
Compound	Study Target	Kb / nM
CC[C@H](C)[C@@H]1NC(=O)[C@H](Cc2ccc(O)cc2)NC(=O)CC(CC)(CC)SSC[C@@H](C(=O)N2CCC[C@H]2C(=O)N[C@@H](CC(C)C)C(=O)NCC(N)=O)NC(=O)[C@H](CC(N)=O)NC(=O)[C@H](CC(C)C)NC1=O (YILNCPLG-NH2; linker N-5 via X1)	Oxytocin receptor (Homo sapiens)	95.5
CC[C@H](C)[C@@H]1NC(=O)[C@H](Cc2ccc(O)cc2)NC(=O)[C@@H](N)C(C)(C)SSC[C@@H](C(=O)N2CCC[C@H]2C(=O)N[C@@H](CC(C)C)C(=O)NCC(N)=O)NC(=O)[C@H](CC(N)=O)NC(=O)[C@H](CCC(N)=O)NC1=O	Oxytocin receptor (Homo sapiens)	138
CC[C@H](C)[C@@H]1NC(=O)[C@H](Cc2ccc(O)cc2)NC(=O)CC(CC)(CC)SSC[C@@H](C(=O)N2CCC[C@H]2C(=O)N[C@@H](CC(C)C)C(=O)NCC(N)=O)NC(=O)[C@H](CC(N)=O)NC(=O)[C@H](CCC(N)=O)NC1=O (YIQNCPLG-NH2; linker N-5 via X1)	Oxytocin receptor (Homo sapiens)	57.5
CC[C@H](C)[C@@H]1NC(=O)[C@H](Cc2ccc(O)cc2)NC(=O)CC(C)(C)SSC[C@@H](C(=O)N2CCC[C@H]2C(=O)N[C@@H](CC(C)C)C(=O)NCC(N)=O)NC(=O)[C@H](CC(N)=O)NC(=O)[C@H](CCC(N)=O)NC1=O (YIQNCPLG-NH2; linker N-5 via X2)	Oxytocin receptor (Homo sapiens)	115

Q: Using the record for CC[C@H](C)[C@@H]1NC(=O)[C@H](Cc2ccc(O)cc2)NC(=O)[C@@H](N)C(C)(C)SSC[C@@H](C(=O)N2CCC[C@H]2C(=O)N[C@@H](CC(C)C)C(=O)NCC(N)=O)NC(=O)[C@H](CC(N)=O)NC(=O)[C@H](CC(C)C)NC1=O (H-[Pen]YILNCPLG-NH2; disulfide 1-6) , report its Kb.
A: 170
